The values you see were collected from the supplement of paper PMC7877785.

Assay: self-splicing fitness, log relative to wild type (ln ratio); higher = more splicing; Tetrahymena group I intron in knt gene, E. coli kanamycin selection, DiMSum; sequences stand for … in CUCUCU…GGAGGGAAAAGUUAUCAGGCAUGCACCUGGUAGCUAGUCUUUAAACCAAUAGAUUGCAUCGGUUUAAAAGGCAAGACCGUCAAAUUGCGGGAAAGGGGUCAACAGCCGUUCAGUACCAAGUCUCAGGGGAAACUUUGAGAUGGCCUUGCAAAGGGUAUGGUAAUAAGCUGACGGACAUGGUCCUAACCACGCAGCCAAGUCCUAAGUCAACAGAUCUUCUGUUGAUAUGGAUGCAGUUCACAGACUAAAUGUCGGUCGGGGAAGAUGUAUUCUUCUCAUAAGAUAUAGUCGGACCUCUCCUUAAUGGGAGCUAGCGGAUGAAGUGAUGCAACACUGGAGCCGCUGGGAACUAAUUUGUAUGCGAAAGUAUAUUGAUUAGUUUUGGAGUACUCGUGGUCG;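 further: selection with 25 µg/mL kanamycin versus none on LB agar overnight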
Details: 30 °C
attribute-measured: self-splicing fitness (ln)

- sequence-record: "GCCAAGCAAUAUUACGGGUC"
  self-splicing fitness (ln): -3.34
- sequence-record: "UCACAGCAAUAUUACGCGAA"
  self-splicing fitness (ln): -1.74
- sequence-record: "GGGCAGCAAUAUUACGAGCG"
  self-splicing fitness (ln): -0.755
- sequence-record: "CAGAAGCAAUAUUACGCUAC"
  self-splicing fitness (ln): -0.828

Just so you know, measured self-splicing fitness (ln) for `GCAUAGCAAUAUUACGACUC` came out at -0.352

Just so you know, measured self-splicing fitness (ln) for `AUAUAGCAAUAUUACGGCCU` came out at -0.457

Just so you know, measured self-splicing fitness (ln) for `CCACAGCAAUAUUACGUAGU` came out at -3.22

Just so you know, measured self-splicing fitness (ln) for `UUGAAGCAAUAUUACGAGAA` came out at -1.9

Just so you know, measured self-splicing fitness (ln) for `UGUAAGCAAUAUUACGCGUU` came out at -2.69

Just so you know, measured self-splicing fitness (ln) for `GCUAAGCAAUAUUACGAUGU` came out at -1.19

Just so you know, measured self-splicing fitness (ln) for `UGAAAGCAAUAUUACGUUGC` came out at -3.54

Just so you know, measured self-splicing fitness (ln) for `CGGCAGCAAUAUUACGUGGU` came out at -4.44
